Numbers sourced from paper PMC2904498.

Molecular target: T. brucei neutral sphingomyelinase (TbnSMase) (Trypanosoma brucei, UniProt B9WNA2)
Sequence (B9WNA2 1-580): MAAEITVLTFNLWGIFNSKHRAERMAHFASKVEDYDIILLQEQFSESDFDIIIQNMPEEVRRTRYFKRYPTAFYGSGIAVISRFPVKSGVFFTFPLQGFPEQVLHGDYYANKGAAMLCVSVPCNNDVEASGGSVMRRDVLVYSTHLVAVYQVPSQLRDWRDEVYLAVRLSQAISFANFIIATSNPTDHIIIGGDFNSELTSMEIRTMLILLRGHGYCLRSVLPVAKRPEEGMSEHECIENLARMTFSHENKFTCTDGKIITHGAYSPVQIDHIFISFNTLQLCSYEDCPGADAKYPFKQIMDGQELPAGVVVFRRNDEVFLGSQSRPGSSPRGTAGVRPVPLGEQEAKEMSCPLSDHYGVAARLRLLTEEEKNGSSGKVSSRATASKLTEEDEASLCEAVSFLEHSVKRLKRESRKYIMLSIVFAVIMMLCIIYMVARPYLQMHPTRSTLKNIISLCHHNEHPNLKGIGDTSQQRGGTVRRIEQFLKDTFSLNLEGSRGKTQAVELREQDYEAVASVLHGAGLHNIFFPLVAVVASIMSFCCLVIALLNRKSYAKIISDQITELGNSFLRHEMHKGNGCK
Format: biochemical
observed-property: pIC50
Give only the number. pIC50 is defined as minus log10 of concentration in molar units.

// Input: CCCCCCCCCCCCCCCCCCOCC(COP(=O)([O-])OCC[N+](C)(C)C)OC (stereo not shown) . Output its pIC50 only.
4.68
